- System: monoclonal antibody of the present invention (CMU-1)
- Test summary: indirect competitive inhibition ELISA, cross reactivity test with monoclonal antibody CMU-1
- Type: binding, mouse
- Test parameters: compound final concentration 0.5 mg/mL; uracil-BSA coated plate; absorbance at 415 nm
Quantity measured: percent absorption (reactivity) with monoclonal antibody CMU-1 (%)

>>> value("O=C1CCNC(=O)N1 [Dihydrouracil]")
8
>>> value("O=c1[nH]cc([C@@H]2O[C@H](CO)[C@@H](O)[C@H]2O)c(=O)[nH]1 [Pseudouridine]")
32
>>> value("Nc1cc[nH]c(=O)n1 [Cytosine]")
15
>>> value("NC(=O)NCCC(=O)O [N-Carbamyl-β-alanine]")
8
>>> value("CC1CNC(=O)NC1=O (stereo not shown) [Dihydrothymine]")
22
